Substrate: O=C(O)C(=O)Cc1ccc(O)c(O)c1
Assay: purified protein
Type: biochemical, Lactobacillus sp. CGMCC 9967
Conditions: 2 mM NADH, Tris-HCl 50 mM pH 7.0, 30 °C
readout: kcat/Km (M⁻¹ s⁻¹)
# output: bare number, implied unit M⁻¹ s⁻¹

For the protein shown here, LaPPR (Lactobacillus sp. CGMCC 9967; H143D) (protein, homodimer) MMKILNSFSLKPEQRQTLEAAGHTVIDADKLDDATAQQIDVVYGWNAAATRVNFDRLQFVQAMSAGVDYLPLAELAKHHVLLANTSGIHAEPIAEYVLGALFTISRGILPAIRADRDMWTLRQERPPMTLLKGKTAVIFGTGDIGSTIATKLQALGLHTIGVSAHGRPAAGFDQVMTDVATHEAAGRADVVINALPLTPDTKHFYDEAFFAAASKQPLFINIGRGPSVDMAALTQALKNKQISAAALDVVDPEPLPQDSPLWGMTNVLLTPHISGTVPQLRDKVFKIFNDNLKTLISSGQLASHQVDLTRGY , give the reported kcat/Km.
410

What do you have for LaPPR (Lactobacillus sp. CGMCC 9967; H143D/H89M/P256C) (protein, homodimer) MMKILNSFSLKPEQRQTLEAAGHTVIDADKLDDATAQQIDVVYGWNAAATRVNFDRLQFVQAMSAGVDYLPLAELAKHHVLLANTSGIMAEPIAEYVLGALFTISRGILPAIRADRDMWTLRQERPPMTLLKGKTAVIFGTGDIGSTIATKLQALGLHTIGVSAHGRPAAGFDQVMTDVATHEAAGRADVVINALPLTPDTKHFYDEAFFAAASKQPLFINIGRGPSVDMAALTQALKNKQISAAALDVVDPEPLCQDSPLWGMTNVLLTPHISGTVPQLRDKVFKIFNDNLKTLISSGQLASHQVDLTRGY ?
2050

Record: LaPPR (Lactobacillus sp. CGMCC 9967; H89M) (protein, homodimer) MMKILNSFSLKPEQRQTLEAAGHTVIDADKLDDATAQQIDVVYGWNAAATRVNFDRLQFVQAMSAGVDYLPLAELAKHHVLLANTSGIMAEPIAEYVLGALFTISRGILPAIRADRDMWTLRQERPPMTLLKGKTAVIFGTGHIGSTIATKLQALGLHTIGVSAHGRPAAGFDQVMTDVATHEAAGRADVVINALPLTPDTKHFYDEAFFAAASKQPLFINIGRGPSVDMAALTQALKNKQISAAALDVVDPEPLPQDSPLWGMTNVLLTPHISGTVPQLRDKVFKIFNDNLKTLISSGQLASHQVDLTRGY
240

One more protein: LaPPR (Lactobacillus sp. CGMCC 9967) (protein, homodimer) MMKILNSFSLKPEQRQTLEAAGHTVIDADKLDDATAQQIDVVYGWNAAATRVNFDRLQFVQAMSAGVDYLPLAELAKHHVLLANTSGIHAEPIAEYVLGALFTISRGILPAIRADRDMWTLRQERPPMTLLKGKTAVIFGTGHIGSTIATKLQALGLHTIGVSAHGRPAAGFDQVMTDVATHEAAGRADVVINALPLTPDTKHFYDEAFFAAASKQPLFINIGRGPSVDMAALTQALKNKQISAAALDVVDPEPLPQDSPLWGMTNVLLTPHISGTVPQLRDKVFKIFNDNLKTLISSGQLASHQVDLTRGY
200

Please answer likewise for LaPPR (Lactobacillus sp. CGMCC 9967; H143D/H89M) (protein, homodimer) MMKILNSFSLKPEQRQTLEAAGHTVIDADKLDDATAQQIDVVYGWNAAATRVNFDRLQFVQAMSAGVDYLPLAELAKHHVLLANTSGIMAEPIAEYVLGALFTISRGILPAIRADRDMWTLRQERPPMTLLKGKTAVIFGTGDIGSTIATKLQALGLHTIGVSAHGRPAAGFDQVMTDVATHEAAGRADVVINALPLTPDTKHFYDEAFFAAASKQPLFINIGRGPSVDMAALTQALKNKQISAAALDVVDPEPLPQDSPLWGMTNVLLTPHISGTVPQLRDKVFKIFNDNLKTLISSGQLASHQVDLTRGY
650
